Can you tell me IC50 for the items I'm about to list?
Molecular target: T1, recombinant human DLL4 (C-terminally His-tagged extracellular domain, R&D Systems) (human, UniProt Q9NR61 25-522, biotinylated in the competition ELISA)
T1 construct: also called rhDLL4; hDLL4
T1 sequence (Q9NR61 25-522): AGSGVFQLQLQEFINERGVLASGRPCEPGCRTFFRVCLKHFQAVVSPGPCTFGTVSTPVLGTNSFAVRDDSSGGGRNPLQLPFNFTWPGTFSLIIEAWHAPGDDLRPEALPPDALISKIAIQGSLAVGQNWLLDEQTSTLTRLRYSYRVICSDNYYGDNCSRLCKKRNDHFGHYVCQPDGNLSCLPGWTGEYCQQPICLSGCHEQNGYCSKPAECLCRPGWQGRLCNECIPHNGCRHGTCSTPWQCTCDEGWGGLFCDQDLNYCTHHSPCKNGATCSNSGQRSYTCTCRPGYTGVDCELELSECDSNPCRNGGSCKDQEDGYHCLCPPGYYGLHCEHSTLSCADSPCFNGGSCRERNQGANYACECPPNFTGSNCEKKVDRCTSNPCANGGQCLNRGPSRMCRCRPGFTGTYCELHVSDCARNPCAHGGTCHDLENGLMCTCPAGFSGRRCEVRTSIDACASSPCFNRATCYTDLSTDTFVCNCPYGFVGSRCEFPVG
Test: competition ELISA hDLL4/hNotch1-Fc; summary table
One number for each entry, in nM.

Previously resolved entries follow.
binder	observed_value
DLLBII136C07 (VHH, not shown: small tags and cut ends) VHH: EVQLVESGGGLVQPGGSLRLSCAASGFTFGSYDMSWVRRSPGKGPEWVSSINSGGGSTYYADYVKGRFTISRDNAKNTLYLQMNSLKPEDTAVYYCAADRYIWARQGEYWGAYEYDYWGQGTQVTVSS	1.4
DLLBII133A09 (VHH, not shown: small tags and cut ends) VHH: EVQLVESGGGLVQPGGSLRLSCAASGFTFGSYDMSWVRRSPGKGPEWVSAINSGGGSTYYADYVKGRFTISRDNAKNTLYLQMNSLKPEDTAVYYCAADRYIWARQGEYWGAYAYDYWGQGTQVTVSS	1.5
DLLBII133A05 (VHH) VHH: EVQLVESGGGLVQPGGSLRLSCAASGFTFGSYDMSWVRRSPGKGPEWVSAINSGGGSTFYTDYVKGRFTISRDNAKNTLYLQMNSLKPEDTAVYYCAADRYIWARQGEYWGAYQYDYWGQGTQVTVSS	2.1
DLLBII015 (VHH, not shown: small tags and cut ends) VHH: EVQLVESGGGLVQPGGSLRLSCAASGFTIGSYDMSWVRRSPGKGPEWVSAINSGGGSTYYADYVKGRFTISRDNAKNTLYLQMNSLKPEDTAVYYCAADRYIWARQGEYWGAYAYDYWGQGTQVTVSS	0.9
DLLBII129E11 (VHH, not shown: small tags and cut ends) VHH: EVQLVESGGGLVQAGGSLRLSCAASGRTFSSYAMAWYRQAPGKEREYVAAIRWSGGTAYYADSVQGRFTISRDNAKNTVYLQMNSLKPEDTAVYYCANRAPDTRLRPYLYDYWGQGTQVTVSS	1.3

Please report IC50 for every entry that follows.
1. DLLBII130B03 (VHH, not shown: small tags and cut ends) VHH: EVQLVESGGGLVQAGGSLRLSCAASGRTFSSYAMAWYRQAPGKEREYVAAIRWSGGTAYYADSVQGRFTISRDNAKNTVYLQMNSLKPEDTAVYYCANRAPDTRLAPYLYDYWGQGTQVTVSS
2. DLLBII130F06 (VHH, not shown: small tags and cut ends) VHH: EVQLVESGGGLVQAGGSLRLSCAASGRTFSSYAMAWYRQAPGKEREYVAAIRWSGGTAYYADSVQGRFTISRDNAKNTVYLQMNSLKPEDTAVYYCANRAPDTRLAPYEYDYWGQGTQVTVSS
3. DLLBII129D08 (VHH, not shown: small tags and cut ends) VHH: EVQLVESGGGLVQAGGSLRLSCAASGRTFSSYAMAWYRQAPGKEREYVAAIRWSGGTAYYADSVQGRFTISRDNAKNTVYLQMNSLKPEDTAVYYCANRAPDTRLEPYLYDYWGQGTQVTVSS
4. DLLBII129A03 (VHH, not shown: small tags and cut ends) VHH: EVQLVESGGGLVQAGGSLRLSCAASGRTFSSYAMAWFRQAPGKEREYVAAIRWSGGTAYYADSVQGRFTISRDNAKNTVYLQMNSLRPEDTAVYYCANRAPDTRLRPYLYDYWGQGTQVTVSS

**A:**
1.5
1.3
1.2
1.8

// for each binder in input: emit IC50
1. DLLBII101G08 (VHH, not shown: small tags and cut ends, parent VHH; also called 101G08 (wt); 101G8) VHH: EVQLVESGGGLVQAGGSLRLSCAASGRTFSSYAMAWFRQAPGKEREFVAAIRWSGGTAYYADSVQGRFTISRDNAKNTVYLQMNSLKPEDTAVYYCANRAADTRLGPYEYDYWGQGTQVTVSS
2. DLLBII129B05 (VHH, not shown: small tags and cut ends) VHH: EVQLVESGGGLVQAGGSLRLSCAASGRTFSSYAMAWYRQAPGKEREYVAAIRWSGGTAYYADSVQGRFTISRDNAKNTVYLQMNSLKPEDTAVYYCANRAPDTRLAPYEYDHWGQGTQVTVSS

**A:**
1. 10
2. 0.9

These entries and their values trace back to patent US20140120095A1.
